- tested_target: Gonadotropin-releasing hormone receptor (Homo sapiens, UniProt P30968)
- Sequence (P30968 whole entry): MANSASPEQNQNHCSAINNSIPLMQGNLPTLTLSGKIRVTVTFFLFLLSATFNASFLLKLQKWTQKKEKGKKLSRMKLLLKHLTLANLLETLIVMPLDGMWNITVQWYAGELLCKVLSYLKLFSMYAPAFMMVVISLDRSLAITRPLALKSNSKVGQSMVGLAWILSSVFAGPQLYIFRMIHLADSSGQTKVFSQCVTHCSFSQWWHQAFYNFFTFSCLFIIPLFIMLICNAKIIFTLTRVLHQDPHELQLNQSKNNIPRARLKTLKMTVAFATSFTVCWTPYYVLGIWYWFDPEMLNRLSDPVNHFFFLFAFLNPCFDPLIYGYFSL
- test_summary: In vitro functional antagonism via inhibition of GnRH-stimulated phosphatidylinositol (PI) hydrolysis in cloned Chinese hamster ovary (CHO) cells stably expressing the human GnRH receptor.
- Assay type: cell-based
readout_label: pIC50
Quick note: pIC50 means taking -log10 of the concentration in moles per liter.

# count of solved cases: 6
>>> recorded_value("Cc1cc(C)cc(-c2[nH]c3ccc(C(C)(C)C(=O)N4CC(C)(C)C4)cc3c2[C@H](C)CNCCCCc2ccncc2)c1")
7.68
>>> recorded_value("COCn1cc(CCNC[C@@H](C)c2c(-c3cc(C)cc(C)c3)[nH]c3ccc(C(C)(C)C(=O)N4CC5CCC4CC5)cc23)ccc1=O")
8.41
>>> recorded_value("Cc1cc(C)cc(-c2[nH]c3ccc(C(C)(C)C(=O)N4CC5CCC4CC5)cc3c2[C@H](C)CNCCc2cccnc2)c1")
8.59
>>> recorded_value("Cc1cc(C)cc(-c2[nH]c3ccc(C(C)(C)C(=O)N4C[C@H]5CCCC[C@H]5C4)cc3c2[C@H](C)CNCCCCc2ccncc2)c1")
7.18
>>> recorded_value("Cc1cc(C)cc(-c2[nH]c3ccc(C(C)(C)C(=O)N4C5CCC4CC5)cc3c2[C@H](C)CNCCc2ccncc2)c1")
8.15
>>> recorded_value("COc1ccc(CCNC[C@@H](C)c2c(-c3cc(C)cc(C)c3)[nH]c3ccc(C(C)(C)C(=O)N4CC5CCC4CC5)cc23)cn1")
7.96

Here is the next item to consider.
I would be grateful if you could share the reported pIC50 for Cc1cc(C)cc(-c2[nH]c3ccc(C(C)(C)C(=O)N4C5CCCCC5C5CCCCC54)cc3c2[C@H](C)CNCCCCc2ccncc2)c1 (some centres not stated) .
7.51
